Data origin: patent US8952034B2

experimental-system: wild-type human cardiac sodium channel, hNav1.5 (Homo sapiens, UniProt Q14524)
Sequence (Q14524 whole entry): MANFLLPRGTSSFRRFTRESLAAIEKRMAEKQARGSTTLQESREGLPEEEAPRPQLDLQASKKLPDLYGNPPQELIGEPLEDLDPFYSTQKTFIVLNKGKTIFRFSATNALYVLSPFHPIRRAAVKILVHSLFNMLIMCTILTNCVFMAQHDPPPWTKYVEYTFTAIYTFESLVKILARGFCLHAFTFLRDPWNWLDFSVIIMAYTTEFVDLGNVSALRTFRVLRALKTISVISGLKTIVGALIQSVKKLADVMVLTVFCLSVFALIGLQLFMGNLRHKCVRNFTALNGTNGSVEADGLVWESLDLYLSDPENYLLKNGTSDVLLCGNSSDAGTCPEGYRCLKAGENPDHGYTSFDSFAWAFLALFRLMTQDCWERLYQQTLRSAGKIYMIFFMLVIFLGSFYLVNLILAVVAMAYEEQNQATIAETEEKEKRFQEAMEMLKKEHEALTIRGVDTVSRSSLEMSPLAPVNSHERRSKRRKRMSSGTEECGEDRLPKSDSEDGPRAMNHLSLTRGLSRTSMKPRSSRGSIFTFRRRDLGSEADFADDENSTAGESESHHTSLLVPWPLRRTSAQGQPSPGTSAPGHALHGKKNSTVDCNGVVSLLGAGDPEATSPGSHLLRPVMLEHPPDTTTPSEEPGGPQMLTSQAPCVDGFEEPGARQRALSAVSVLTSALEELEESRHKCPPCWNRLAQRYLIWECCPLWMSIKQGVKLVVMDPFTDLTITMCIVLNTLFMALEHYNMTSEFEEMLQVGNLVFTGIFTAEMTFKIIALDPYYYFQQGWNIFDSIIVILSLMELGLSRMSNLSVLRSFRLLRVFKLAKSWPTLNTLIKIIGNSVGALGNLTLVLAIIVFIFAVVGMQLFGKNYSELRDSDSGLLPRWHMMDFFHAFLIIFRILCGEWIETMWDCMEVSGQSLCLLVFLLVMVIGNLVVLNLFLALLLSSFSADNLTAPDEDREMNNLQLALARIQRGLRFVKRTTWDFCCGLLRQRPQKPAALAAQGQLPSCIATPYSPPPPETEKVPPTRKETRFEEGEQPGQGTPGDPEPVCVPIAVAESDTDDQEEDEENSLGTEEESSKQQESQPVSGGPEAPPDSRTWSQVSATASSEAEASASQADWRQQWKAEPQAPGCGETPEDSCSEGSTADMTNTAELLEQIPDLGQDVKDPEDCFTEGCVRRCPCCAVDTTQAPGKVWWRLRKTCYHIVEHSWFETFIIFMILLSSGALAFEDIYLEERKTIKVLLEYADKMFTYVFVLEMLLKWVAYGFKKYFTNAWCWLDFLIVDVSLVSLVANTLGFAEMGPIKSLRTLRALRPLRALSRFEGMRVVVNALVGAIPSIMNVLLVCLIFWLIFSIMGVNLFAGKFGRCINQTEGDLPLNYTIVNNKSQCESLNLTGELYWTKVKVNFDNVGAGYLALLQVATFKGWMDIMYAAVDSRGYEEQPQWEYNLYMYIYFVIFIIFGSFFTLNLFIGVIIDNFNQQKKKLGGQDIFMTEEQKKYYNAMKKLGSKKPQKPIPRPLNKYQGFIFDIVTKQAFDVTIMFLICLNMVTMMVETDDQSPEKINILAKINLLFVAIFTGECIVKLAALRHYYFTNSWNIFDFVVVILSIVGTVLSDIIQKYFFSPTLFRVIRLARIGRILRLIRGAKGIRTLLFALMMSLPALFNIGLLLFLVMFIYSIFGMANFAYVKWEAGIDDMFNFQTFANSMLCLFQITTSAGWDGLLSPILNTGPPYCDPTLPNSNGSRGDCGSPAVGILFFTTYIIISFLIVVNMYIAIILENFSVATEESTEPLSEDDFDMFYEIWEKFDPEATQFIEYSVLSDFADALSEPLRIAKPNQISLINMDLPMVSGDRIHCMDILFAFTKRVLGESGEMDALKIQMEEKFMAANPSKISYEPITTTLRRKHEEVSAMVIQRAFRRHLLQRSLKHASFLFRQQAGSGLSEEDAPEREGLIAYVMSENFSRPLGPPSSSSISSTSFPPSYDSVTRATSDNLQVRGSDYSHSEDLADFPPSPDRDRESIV
assay-notes: Late INa screening assay (automated whole cell patch clamp, PatchXpress)
Format: cell-based
run-conditions: compound at 1 μM; HEK293 cells expressing hNav1.5; late INa generated with 10 μM Tefluthrin (or 50 nM ATX II); read-out: LateINa_1 uM (percent block of late INa)
Category scheme (inhibition at 1 µM): low = under 30%, moderate = from 30% up to 60%, high = 60% and over

| molecule | label-class |
| --- | --- |
| FC(F)(F)c1nnc2ccc(-c3ccc(Nc4ccc(Cl)cc4)cc3)cn12 | low |
| CC(C)c1nnc2ccc(-c3ccc(OCC(F)(F)F)nc3)nn12 | low |
| Fc1cccc(F)c1CCOC(F)(F)c1nnc2ccc(-c3ccc(OC(F)(F)F)cc3)cn12 | high |

Request: Sort N#Cc1cccc(COC(F)(F)c2nnc3ccc(-c4ccc(OC(F)(F)F)cc4)cn23)c1 into one of the categories.
Result: moderate

Request: Class (by measured inhibition at 1 µM) for FC(F)(F)c1ncc2ccc(-c3nccs3)cn12
Result: low

Request: Please report the category associated with OCc1nc(C(F)(F)F)n2cc(-c3ccc(OC(F)(F)F)cc3)ccc12 , nothing else.
Result: moderate
